Target: human orexin-1 receptor (Homo sapiens (Human), UniProt O43613)
Sequence (O43613 whole entry): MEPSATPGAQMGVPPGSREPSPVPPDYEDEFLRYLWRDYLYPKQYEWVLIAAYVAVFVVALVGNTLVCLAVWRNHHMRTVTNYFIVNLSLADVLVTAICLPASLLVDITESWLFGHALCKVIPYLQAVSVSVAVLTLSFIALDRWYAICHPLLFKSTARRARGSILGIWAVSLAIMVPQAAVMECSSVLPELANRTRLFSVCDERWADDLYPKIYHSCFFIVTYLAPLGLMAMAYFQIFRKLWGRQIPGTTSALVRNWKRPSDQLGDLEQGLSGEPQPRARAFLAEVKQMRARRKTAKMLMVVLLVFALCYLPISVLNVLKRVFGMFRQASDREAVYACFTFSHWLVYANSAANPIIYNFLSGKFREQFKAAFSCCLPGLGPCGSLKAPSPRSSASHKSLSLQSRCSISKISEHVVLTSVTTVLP
Assay: In vitro assay: intracellular calcium measurements (FLIPR), antagonistic activity
Conditions: CHO cells expressing human orexin-1 receptor, orexin-A agonist, geometric mean, read-out: IC50 Ox1
ENDPOINT: IC50 (nM)
Provide the reading as a plain figure in nM.

The cases that follow already have their IC50 on record.
COMPOUND	UNIT	IC50
COc1ccc(-c2sc(C)nc2C(=O)N2CC[C@H](C)[C@H]2c2nc3cc(OC)c(OC)cc3[nH]2)cn1 [Ex. 4.53]	nM	111
COc1cc2nc([C@]3(C)CCCN3C(=O)c3cc(Cl)ccc3-n3nccn3)n(C)c2cc1OC [Ex. 7.24]	nM	33
Cc1ccc(-n2nccn2)c(C(=O)N2CC[C@H](C)[C@H]2c2nc3cc(Cl)cc(C)c3[nH]2)c1 [Ex. 4.39]	nM	14
Cc1ccc(C(=O)N2CCC[C@@]2(C)c2nc3cc(C(F)(F)F)c(Cl)cc3[nH]2)c(-n2nccn2)c1 [Ex. 5.140]	nM	5
CO[C@@H]1C[C@@H](c2nc3c(C)c(Cl)ccc3[nH]2)N(C(=O)c2nc(C)sc2-c2cccc(Cl)c2)C1 [Ex. 3.9]	nM	1

Identify IC50 associated with the compound COc1ccc(-c2cccc(F)c2)c(C(=O)N2CCC[C@@]2(C)c2nc3ccc(Cl)c(C)c3[nH]2)c1F [Ex. 5.300]
10

Identify IC50 associated with the compound CCc1ccc(-c2sc(C)nc2C(=O)N2CCC[C@H]2c2nc3ccc(OC)cc3[nH]2)cc1 [Ex. 1.24]
850

###

Target: human orexin-1 receptor (Homo sapiens (Human), UniProt O43613)
Assay: In vitro assay: intracellular calcium measurements (FLIPR), antagonistic activity
Conditions: CHO cells expressing human orexin-1 receptor, orexin-A agonist, geometric mean, read-out: IC50 Ox1
ENDPOINT: pIC50
Note: pIC50 values are expressed as the negative base-10 logarithm of concentration in M.

MOLECULE	ENDPOINT	NUMERIC READOUT
C=C1CC(c2nc3cc(SC)ccc3[nH]2)N(C(=O)c2nc(C3CC3)sc2-c2cccc(C)c2)C1 (stereo not shown) [Ex. 6.88]	pIC50	7.70
Cc1ccc(-c2nc(C(=O)N3CCC[C@@]3(C)c3nc4c(C)c(Cl)ccc4[nH]3)c(-c3ccc(F)cc3)s2)cc1Cl [Ex. 5.258]	pIC50	7.44
C=C1C[C@@H](c2nc3ccc(Cl)c(C)c3[nH]2)N(C(=O)c2nc(C)sc2-c2cccc(OC)c2)C1 [Ex. 6.121]	pIC50	9.00
C=C1C[C@@H](c2nc3cc(OC)ccc3[nH]2)N(C(=O)c2ccsc2-c2ccc(C)c(C)c2)C1 [Ex. 6.39]	pIC50	6.97
Cc1ccc(-n2nccn2)c(C(=O)N2CC[C@H](C)[C@H]2c2nc3c(C)cc(Cl)cc3[nH]2)c1F [Ex. 4.99]	pIC50	7.89
COc1ccccc1-c1ccc(C)cc1C(=O)N1CCC[C@@]1(C)c1nc2cc(C(F)(F)F)c(Cl)cc2[nH]1 [Ex. 5.148]	pIC50	7.46

Below: the item to evaluate.
Tell me pIC50 of Cc1ccc(-n2nccn2)c(C(=O)N2CCC[C@@]2(C)c2nc3cc(Br)ccc3[nH]2)c1 [Ex. 5.8] when tested on human orexin-1 receptor (Homo sapiens (Human), UniProt O43613).
7.89

###

Target: human orexin-2 receptor (Homo sapiens (Human), UniProt O43614)
Sequence (O43614 whole entry): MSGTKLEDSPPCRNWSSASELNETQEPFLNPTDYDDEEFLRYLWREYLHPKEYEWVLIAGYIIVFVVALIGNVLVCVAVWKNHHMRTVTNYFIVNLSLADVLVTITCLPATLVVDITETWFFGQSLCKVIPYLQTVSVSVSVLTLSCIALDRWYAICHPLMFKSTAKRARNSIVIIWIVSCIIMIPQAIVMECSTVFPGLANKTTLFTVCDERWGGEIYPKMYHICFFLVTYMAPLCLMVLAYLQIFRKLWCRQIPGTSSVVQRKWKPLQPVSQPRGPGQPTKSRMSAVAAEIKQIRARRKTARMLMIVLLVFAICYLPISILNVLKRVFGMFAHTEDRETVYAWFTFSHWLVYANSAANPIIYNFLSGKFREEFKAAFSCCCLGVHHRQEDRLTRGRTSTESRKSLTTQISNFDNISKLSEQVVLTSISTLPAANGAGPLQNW
Test: In vitro assay: intracellular calcium measurements (FLIPR), antagonistic activity
Settings: CHO cells expressing human orexin-2 receptor, orexin-A agonist, geometric mean, read-out: IC50 Ox2
// values below are reported IC50
Provide the reading as a plain figure in nM.

The cases that follow already have their IC50 on record.
COMPOUND	MEASURED TARGET	IC50 [nM]
C=C1C[C@@H](c2nc3cc(OC)ccc3[nH]2)N(C(=O)c2cnc(C)nc2-c2ccccc2)C1	human orexin-2 receptor (Homo sapiens (Human), UniProt O43614)	151
C=C1CN(C(=O)c2ccccc2-c2ccc(F)c(C)c2)C(C)(c2nc3cc(OC)ccc3[nH]2)C1 (racemic)	human orexin-2 receptor (Homo sapiens (Human), UniProt O43614)	44

Identify IC50 associated with the compound `Cc1ccc(-n2nccn2)c(C(=O)N2CCC[C@@]2(C)c2nc3c(C)c(C)ccc3[nH]2)c1`
19

Identify IC50 associated with the compound `C=C1C[C@@H](c2nc3c(C)c(Cl)ccc3[nH]2)N(C(=O)c2nc(C)sc2-c2cccc(Cl)c2)C1`
1

###

Target: human orexin-2 receptor (Homo sapiens (Human))
Assay: In vitro assay: intracellular calcium measurements (FLIPR), antagonistic activity
Settings: CHO cells expressing human orexin-2 receptor, orexin-A agonist, geometric mean, read-out: IC50 Ox2
Threshold check on IC50: strictly below 20 nM is 1; on or above 20 nM is -1.

Would you please look over these solved cases?
COMPOUND	GROUP
Cc1cc2[nH]c([C@@H]3[C@@H](C)CCN3C(=O)c3c(F)cccc3-c3ccccc3)nc2cc1Cl [Ex. 4.112]	-1
CSc1ccc2nc([C@@H]3CCCN3C(=O)c3nc(C)sc3-c3ccc(C)cc3)[nH]c2c1 [Ex. 1.40]	-1
C=C1C[C@@H](c2nc3cc(Cl)c(C)cc3[nH]2)N(C(=O)c2cc(C)ccc2-n2nccn2)C1 [Ex. 6.65]	1
C=C1CN(C(=O)c2cc(C)c(C)cc2-n2nccn2)C(C)(c2nc3cc(OC)ccc3[nH]2)C1 (stereo not drawn) [Ex. 6.159]	1
C=C1C[C@@H](c2nc3c(C)cc(C)cc3[nH]2)N(C(=O)c2nc(C)sc2-c2ccc(C)c(C)c2)C1 [Ex. 6.58]	1
Cc1ccc(-n2nccn2)c(C(=O)N2C[C@H](F)C[C@H]2c2nc3c(C)c(Cl)ccc3[nH]2)c1 [Ex. 2.5]	1
CSc1cccc2nc([C@@H]3CCCN3C(=O)c3cnc(C)nc3-c3ccc(F)cc3)[nH]c12 [Ex. 1.80]	-1
C=C1C[C@@H](c2nc3cccc(C)c3[nH]2)N(C(=O)c2nc(C)sc2-c2ccc(OC)nc2)C1 [Ex. 6.103]	1
Cc1ccc(-c2ccc(C#N)cc2)c(C(=O)N2CCC[C@@]2(C)c2nc3cc(C(F)(F)F)c(Cl)cc3[nH]2)c1 [Ex. 5.160]	-1
C=C1C[C@@H](c2nc3cc(Cl)c(C(F)(F)F)cc3[nH]2)N(C(=O)c2cc(Cl)ccc2-n2nccn2)C1 [Ex. 6.177]	1

Does Cc1cccc2[nH]c([C@]3(C)CCCN3C(=O)c3cc(Cl)ccc3-n3nccn3)nc12 [Ex. 5.49] have IC50 strictly under 20 nM?
-1

Does Cc1ccc(-n2nccn2)c(C(=O)N2CCC[C@@]2(C)c2nc3c(Br)cccc3[nH]2)c1 [Ex. 5.18] have IC50 strictly under 20 nM?
-1

Does Cc1cc2[nH]c([C@@H]3[C@@H](C)CCN3C(=O)c3cc(Cl)ccc3-c3ccccc3)nc2cc1Cl [Ex. 4.103] have IC50 strictly under 20 nM?
-1

Does Cc1cc2[nH]c([C@@H]3[C@@H](C)CCN3C(=O)c3cc(Cl)ccc3-n3nccn3)nc2cc1Cl [Ex. 4.71] have IC50 strictly under 20 nM?
-1

Does CSc1cccc2nc([C@@H]3CCCN3C(=O)c3nc(C)sc3-c3cccc(F)c3)[nH]c12 [Ex. 1.65] have IC50 strictly under 20 nM?
-1

Does Cc1cc2[nH]c([C@@H]3[C@@H](C)CCN3C(=O)c3c(-c4ncccn4)ccc(C)c3F)nc2cc1Cl [Ex. 4.132] have IC50 strictly under 20 nM?
-1

Does Cc1ccc(-c2ccccc2C(=O)N2CC[C@H](C)[C@H]2c2nc3c(C)c(Cl)ccc3[nH]2)cc1 [Ex. 4.61] have IC50 strictly under 20 nM?
-1

Does Cc1cc(Cl)cc2[nH]c([C@@H]3[C@@H](C)CCN3C(=O)c3ccccc3-n3nccn3)nc12 [Ex. 4.101] have IC50 strictly under 20 nM?
-1

Does Cc1cc(C(=O)N2CCC[C@@]2(C)c2nc3cc(OC(F)(F)F)ccc3[nH]2)c(-n2nccn2)cc1C [Ex. 5.235] have IC50 strictly under 20 nM?
1

Does CSc1ccc2nc([C@@H]3CCCN3C(=O)c3nc(C4CC4)sc3-c3ccc(C)cc3)[nH]c2c1 [Ex. 1.41] have IC50 strictly under 20 nM?
-1

Does CSc1cccc2nc([C@@H]3CCCN3C(=O)c3ccc(C)cc3-n3nccn3)[nH]c12 [Ex. 1.169] have IC50 strictly under 20 nM?
1

Does C=C1CN(C(=O)c2cc(C)ccc2-n2nccn2)C(C)(c2nc3cc(OC)ccc3[nH]2)C1 (stereo not drawn) [Ex. 6.156] have IC50 strictly under 20 nM?
1

Does C[C@@]1(c2nc3cc(C(F)(F)F)ccc3[nH]2)CCCN1C(=O)c1cc(C#N)ccc1-n1nccn1 [Ex. 5.180] have IC50 strictly under 20 nM?
-1

Does Cc1cc(C)c2nc(C3CCCN3C(=O)c3nc(C)sc3-c3cccc(Cl)c3)[nH]c2c1 (racemic) [Ex. 1.102] have IC50 strictly under 20 nM?
1
